Numbers sourced from patent US20250064789A1.

Below, each of the compounds is paired with its reported IC50 value.
# SYSTEM_UNDER_TEST: recombinant SARS-CoV-2 M^pro (Severe acute respiratory syndrome coronavirus 2 (2019-nCoV) (SARS-CoV-2), UniProt P0DTD1)
# MEASUREMENT_PROTOCOL: Inhibition of SARS-CoV-2 M^pro enzyme activity (fluorescent substrate assay)
# Assay type: biochemical
# CONDITIONS: inhibition of SARS-CoV-2 M^pro enzyme activity; values in nM; read-out: IC50

[
  {
    "COMPOUND": "C[C@@H](NC(=O)Cc1cc(C(C)(C)C)nn1-c1ccccc1)C(=O)N[C@H](Cc1ccccc1)C(=O)C(=O)NCc1ccccn1",
    "IC50 (nM)": 16.1
  },
  {
    "COMPOUND": "COC[C@@H](NC(=O)CC1CC(F)(F)C1)C(=O)N[C@H](Cc1ccccc1)C(=O)C(=O)NCc1nccs1",
    "IC50 (nM)": 10.2
  },
  {
    "COMPOUND": "O=C(CC1CC1(F)F)NCC(=O)N[C@H](Cc1ccccc1)C(=O)C(=O)NCc1cscn1 (stereo partly shown)",
    "IC50 (nM)": 36.5
  },
  {
    "COMPOUND": "O=C(CNC(=O)C1CCCCC1)N[C@H](Cc1ccccc1)C(=O)C(=O)NCc1ccccn1",
    "IC50 (nM)": 21.8
  }
]
